- Target under test: Sodium/hydrogen exchanger 3 (Homo sapiens, UniProt P48764)
- Assay info: Inhibition of human NHE3 expressed in LAP1 cell assessed as intracellular pH recovery measured for 2 mins by CECF-AM dye based FLIPR assay
Consider the following molecules and their measured IC50 readings.
Provide the reading as a plain figure in µM.

Lab book: IC50 of CS(=O)(=O)c1ccc(O[C@H]2c3cc(Cl)cc(Cl)c3C[C@@H]2N2CC(O)C2)cc1 noted as 1.64

Lab book: IC50 of COCCN1CCCN([C@H]2Cc3c(Cl)cc(Cl)cc3[C@@H]2Oc2ccc(S(C)(=O)=O)cc2)CC1 noted as 0.064

Lab book: IC50 of CN1CCN([C@H]2Cc3c(Cl)cc(Cl)cc3[C@@H]2Oc2ccc(S(C)(=O)=O)cc2)CC1 noted as 4.04

Continuing:
Lab book: IC50 of CS(=O)(=O)c1ccc(O[C@H]2c3cc(Cl)cc(Cl)c3C[C@@H]2N2CC[C@H](O)C2)cc1 noted as 0.384

Lab book: IC50 of O=C1CCCN1c1cccc(O[C@H]2c3ccccc3C[C@@H]2N2CCCC2)c1 noted as 3.52

Lab book: IC50 of Cc1nnc(C2CC2)n1-c1ccc(O[C@H]2c3ccccc3C[C@@H]2N2CCCC2)cc1 noted as 0.272

Lab book: IC50 of CS(=O)(=O)c1ccc(O[C@H]2c3cc(Cl)cc(F)c3C[C@@H]2N2CCCC2)cc1 (racemic) noted as 0.737

Lab book: IC50 of O=C1OCCN1c1cccc(O[C@H]2c3ccccc3C[C@@H]2N2CCCC2)c1 noted as 0.955

Lab book: IC50 of N[C@@H]1CCCN([C@H]2Cc3c(Cl)cc(Cl)cc3[C@@H]2Oc2ccc(-n3cncn3)cc2)C1 noted as 0.03

Lab book: IC50 of CS(=O)(=O)c1ccc(O[C@H]2c3cc(F)cc(Cl)c3C[C@@H]2N2CCNCC2)cc1 (racemic) noted as 0.123

Lab book: IC50 of CN(C)CCCN(C)[C@H]1Cc2c(Cl)cc(Cl)cc2[C@@H]1Oc1ccc(S(C)(=O)=O)cc1 noted as 0.048

* * *

- Assay info: Permeability in human Caco2/TC7 cells assessed as total flux at 20 uM incubated for 2 hrs by LC-MS/MS method
- Type: ADME, cell-based
- Test context: Caco-2, read-out: permeability
Consider the following partition of reported Papp at 2 h, 20 µM into named classes: b0: < 1 ×10⁻⁶ cm/s; b1: ≥ 1 ×10⁻⁶ cm/s and < 9 ×10⁻⁶ cm/s; b2: ≥ 9 ×10⁻⁶ cm/s

# example entries with known answers
Category of O=c1[nH]ccn1-c1cccc(O[C@H]2c3ccccc3C[C@@H]2N2CCCC2)c1 , please.
b2

Category of N[C@@H]1CCCN([C@H]2Cc3c(Cl)cc(Cl)cc3[C@@H]2Oc2ccc(-n3ccnc3)cc2)C1 , please.
b1

Category of CN(C)CCN(C)[C@H]1Cc2c(Cl)cc(Cl)cc2[C@@H]1Oc1ccc(S(C)(=O)=O)cc1 , please.
b1

Category of C[C@@H]1CN([C@H]2Cc3c(Cl)cc(Cl)cc3[C@@H]2Oc2ccc(S(C)(=O)=O)cc2)CCN1 , please.
b1

Category of CS(=O)(=O)c1ccc(O[C@H]2c3cc(Cl)cc(Cl)c3C[C@@H]2N2CCC[C@@H](NCCF)C2)cc1 , please.
b2

Category of NS(=O)(=O)c1ccc(O[C@H]2c3ccccc3C[C@@H]2N2CCCC2)c(Cl)c1Cl , please.
b2

Category of N[C@@H]1CCCN([C@H]2Cc3c(Cl)cc(Cl)cc3[C@@H]2Oc2ccc(S(N)(=O)=O)c(Cl)c2Cl)C1 , please.
b0

Category of CS(=O)(=O)c1ccc(O[C@H]2c3cc(Cl)cc(Cl)c3C[C@@H]2N2CCCNCC2)cc1 , please.
b1

Category of Cc1nnc(C)n1-c1ccc(O[C@H]2c3cc(Cl)cc(Cl)c3C[C@@H]2N2CCCN(C)CC2)cc1 , please.
b0

Category of Cc1nnc(C)n1-c1ccc(O[C@H]2c3cc(Cl)ccc3C[C@@H]2N2CC[C@@H](O)C2)c(Cl)c1 , please.
b0

Would you kindly look at the next entry?
Category of Cc1nnc(C)n1-c1ccc(O[C@H]2c3ccccc3C[C@@H]2N2CCCC2)c(Cl)c1 , please.
b1

* * *

Consider the following compounds and their measured pIC50 readings.
- Target under test: Sodium/hydrogen exchanger 3 (Homo sapiens, UniProt P48764)
- Sequence (P48764 whole entry): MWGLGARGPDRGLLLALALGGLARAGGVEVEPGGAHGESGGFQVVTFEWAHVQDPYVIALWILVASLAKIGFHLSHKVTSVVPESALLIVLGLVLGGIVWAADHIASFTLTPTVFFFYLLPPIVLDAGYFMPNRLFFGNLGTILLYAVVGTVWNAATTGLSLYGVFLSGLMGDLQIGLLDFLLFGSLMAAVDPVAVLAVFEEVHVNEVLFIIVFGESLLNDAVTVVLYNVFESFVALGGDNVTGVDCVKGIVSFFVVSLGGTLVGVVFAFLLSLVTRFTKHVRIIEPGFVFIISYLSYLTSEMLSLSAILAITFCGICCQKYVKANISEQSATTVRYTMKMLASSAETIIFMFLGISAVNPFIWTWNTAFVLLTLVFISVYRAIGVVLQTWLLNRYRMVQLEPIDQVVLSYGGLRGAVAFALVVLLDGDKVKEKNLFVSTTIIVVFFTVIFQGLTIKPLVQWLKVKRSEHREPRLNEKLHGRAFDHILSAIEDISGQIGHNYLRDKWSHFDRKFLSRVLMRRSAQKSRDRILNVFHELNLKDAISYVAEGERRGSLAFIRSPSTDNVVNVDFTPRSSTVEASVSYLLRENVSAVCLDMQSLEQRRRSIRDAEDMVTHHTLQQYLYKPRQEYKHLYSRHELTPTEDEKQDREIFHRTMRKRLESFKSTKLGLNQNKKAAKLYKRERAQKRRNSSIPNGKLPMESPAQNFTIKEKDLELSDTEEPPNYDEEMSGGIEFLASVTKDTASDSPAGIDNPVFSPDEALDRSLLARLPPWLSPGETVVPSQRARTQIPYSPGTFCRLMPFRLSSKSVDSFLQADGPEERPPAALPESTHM
- Assay info: Inhibition of human NHE3 expressed in LAP1 cell assessed as intracellular pH recovery measured for 2 mins by CECF-AM dye based FLIPR assay
Expect pIC50 as a plain number equal to -log10 of the molar concentration.

Example cases with answers are listed next.
Lab book: pIC50 of O=c1[nH]ccn1-c1cccc(O[C@H]2c3ccccc3C[C@@H]2N2CCCC2)c1 noted as 6.55

Lab book: pIC50 of Cc1nnc(C)n1-c1ccc(O[C@H]2c3ccccc3C[C@@H]2N2CCCC2)c(C(F)(F)F)c1 noted as 6.93

Lab book: pIC50 of N#Cc1ccc(O[C@H]2c3ccccc3C[C@@H]2N2CCCC2)cc1 noted as 5.35

Lab book: pIC50 of CC(=O)Nc1cccc(O[C@H]2c3ccccc3C[C@@H]2N2CCC[C@@H](N)C2)c1 noted as 6.36

Lab book: pIC50 of Cc1nnc(C)n1-c1ccc(O[C@H]2c3cc(Cl)cc(Cl)c3C[C@@H]2N2CCCNCC2)cc1 noted as 7.64

Lab book: pIC50 of O=C1CCC(=O)N1c1cccc(O[C@H]2c3ccccc3C[C@@H]2N2CCCC2)c1 noted as 5.53

Lab book: pIC50 of Cn1ccn(-c2cccc(O[C@H]3c4ccccc4C[C@@H]3N3CCCC3)c2)c1=O noted as 6.71

Lab book: pIC50 of N[C@@H]1CCCN([C@H]2Cc3c(Cl)cc(Cl)cc3[C@@H]2Oc2ccc(-n3ccnc3)cc2)C1 noted as 7.64

Continuing:
Lab book: pIC50 of CS(=O)(=O)c1ccc(O[C@H]2c3cc(Cl)cc(Cl)c3C[C@@H]2N2CC[C@H](F)C2)cc1 noted as 6.05

Lab book: pIC50 of CS(=O)(=O)c1ccc(O[C@H]2c3ccccc3C[C@@H]2N2CCNCC2)cc1 noted as 5.18

* * *

Consider the following molecules and their measured pIC50 readings.
- Target under test: Sodium/hydrogen exchanger 3 (Homo sapiens)
- Assay info: Inhibition of human NHE3 expressed in LAP1 cell assessed as intracellular pH recovery measured for 2 mins by CECF-AM dye based FLIPR assay
Expect pIC50 as a plain number equal to -log10 of the molar concentration.

Example cases with answers are listed next.
Lab book: pIC50 of CN1CCCN([C@H]2Cc3c(Cl)cc(Cl)cc3[C@@H]2Oc2ccc(S(C)(=O)=O)cc2)CC1 noted as 7.03

Lab book: pIC50 of N[C@@H]1CCCN([C@H]2Cc3c(Cl)cc(Cl)cc3[C@@H]2Oc2ccc(S(N)(=O)=O)c(Cl)c2Cl)C1 noted as 9.70

Lab book: pIC50 of NS(=O)(=O)c1ccc(O[C@H]2c3ccccc3C[C@@H]2N2CCCC2)cc1 noted as 6.30

// switching to the query molecule
Lab book: pIC50 of O=S1(=O)CCCN1c1cccc(O[C@H]2c3ccccc3C[C@@H]2N2CCCC2)c1 noted as 5.82
